- Test system: NCI-H1581;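 also: cell growth inhibition read out by a viability assay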
- METHOD_NOTES: cells
- Assay type: functional, cell-based, Homo sapiens
- SETUP_CONDITIONS: nci-h1581
- Description: SANGER: Inhibition of human NCI-H1581 cell growth in a cell viability assay.
pIC50: −log10 of the molar value.
MEASURED_ATTRIBUTE: pIC50

Q: State the recorded pIC50 for this entry: `Cc1cc([C@@H](C)Nc2ccccc2C(=O)O)c2nc(N3CCOCC3)cc(=O)n2c1`
Ans: < 5.29

###

- Tested on: HT-144
- METHOD_NOTES: cells
- Assay type: functional, cell-based, Homo sapiens
- SETUP_CONDITIONS: Homo sapiens, HT-144
- Description: SANGER: Inhibition of human HT-144 cell growth in a cell viability assay.
MEASURED_ATTRIBUTE: IC50

# example entries with known answers
Q: State the recorded IC50 for this entry: O=C(c1cc(Cc2n[nH]c(=O)c3ccccc23)ccc1F)N1CCN(C(=O)C2CC2)CC1 [OLAPARIB]
Ans: > 5 µM

Q: Then what about the molecule Cc1cc([C@@H](C)Nc2ccccc2C(=O)O)c2nc(N3CCOCC3)cc(=O)n2c1 [AZD-6482] ?
Ans: > 5.12 µM

Q: Then what about the molecule `CCOc1nc(NC(=O)Cc2cc(OC)ccc2OC)cc(N)c1C#N` ?
Ans: > 10 µM

Q: Then what about the molecule COc1ccc(C2=N[C@@H](c3ccc(Cl)cc3)[C@@H](c3ccc(Cl)cc3)N2C(=O)N2CCNC(=O)C2)c(OC(C)C)c1 [NUTLIN-3] ?
Ans: 2.65 µM

***
Q: State the recorded IC50 for this entry: Cc1ccc(Nc2nccc(N(C)c3ccc4c(C)n(C)nc4c3)n2)cc1S(N)(=O)=O [PAZOPANIB]
Ans: > 8 µM
